Target: B2 bradykinin receptor (Homo sapiens)
Assay: Percent agonistic activity in rabbit jugular vein expressing B2 receptor relative to bradykinin
Format: functional
Conditions: Oryctolagus cuniculus
Where a SMILES comes first, the peptide text is derived from it.

MOLECULE	LIMIT OPERATOR	Relative affinity / %
NC(N)=NCCC[C@H](NC(=O)[C@H](Cc1ccc([N+](=O)[O-])cc1)NC(=O)[C@@H]1CCCN1C(=O)[C@H](CO)NC(=O)[C@H](Cc1ccccc1)NC(=O)CNC(=O)[C@@H]1CCCN1C(=O)[C@@H]1CCCN1C(=O)[C@@H](N)CCCN=C(N)N)C(=O)O (HELM PEPTIDE1{R.P.P.G.F.S.P.[O=C([C@H](Cc1ccc([N+](=O)[O-])cc1)N[*:1])[*:2]].R}$$$$V2.0)	=	25
NC(N)=NCCC[C@H](NC(=O)[C@H](Cc1ccccc1)NC(=O)[C@@H]1CCCN1C(=O)[C@H](CO)NC(=O)[C@H](CC1CCCCC1)NC(=O)CNC(=O)[C@@H]1CCCN1C(=O)[C@@H]1CCCN1C(=O)[C@@H](N)CCCN=C(N)N)C(=O)O (HELM PEPTIDE1{R.P.P.G.[Cha].S.P.F.R}$$$$V2.0)	=	23
N=C(N)NCCC[C@H](NC(=O)[C@H](Cc1ccccc1)NC(=O)[C@@H]1CCCN1C(=O)[C@H](CO)NC(=O)[C@H](Cc1cc(I)c(N)c(I)c1)NC(=O)CNC(=O)[C@@H]1CCCN1C(=O)[C@@H]1CCCN1C(=O)[C@@H](N)CCCNC(=N)N)C(=O)O (HELM PEPTIDE1{R.P.P.G.[Nc1c(I)cc(C[C@H](N[*:1])C(=O)[*:2])cc1I].S.P.F.R}$$$$V2.0)	<	0.01
NC(N)=NCCC[C@H](NC(=O)[C@H](Cc1ccccc1)NC(=O)[C@@H]1CCCN1C(=O)[C@H](CO)NC(=O)[C@H](Cc1ccc([N+](=O)[O-])cc1)NC(=O)CNC(=O)[C@@H]1CCCN1C(=O)[C@@H]1CCCN1C(=O)[C@@H](N)CCCN=C(N)N)C(=O)O (HELM PEPTIDE1{R.P.P.G.[O=C([C@H](Cc1ccc([N+](=O)[O-])cc1)N[*:1])[*:2]].S.P.F.R}$$$$V2.0)	=	7
[N-]=[N+]=Nc1ccc(C[C@H](NC(=O)CNC(=O)[C@@H]2CCCN2C(=O)[C@@H]2CCCN2C(=O)[C@@H](N)CCCNC(=N)N)C(=O)N[C@@H](CO)C(=O)N2CCC[C@H]2C(=O)N[C@@H](Cc2ccccc2)C(=O)N[C@@H](CCCNC(=N)N)C(=O)O)cc1 (HELM PEPTIDE1{R.P.P.G.[[N-]=[N+]=Nc1ccc(C[C@H](N[*:1])C(=O)[*:2])cc1].S.P.F.R}$$$$V2.0)	=	17
NC(N)=NCCC[C@H](NC(=O)[C@H](Cc1ccc(N)cc1)NC(=O)[C@@H]1CCCN1C(=O)[C@H](CO)NC(=O)[C@H](Cc1ccccc1)NC(=O)CNC(=O)[C@@H]1CCCN1C(=O)[C@@H]1CCCN1C(=O)[C@@H](N)CCCN=C(N)N)C(=O)O (HELM PEPTIDE1{R.P.P.G.F.S.P.[Nc1ccc(C[C@H](N[*:1])C(=O)[*:2])cc1].R}$$$$V2.0)	=	9

----------
Target: B1 bradykinin receptor (Homo sapiens) (UniProt P46663)
Sequence (whole entry): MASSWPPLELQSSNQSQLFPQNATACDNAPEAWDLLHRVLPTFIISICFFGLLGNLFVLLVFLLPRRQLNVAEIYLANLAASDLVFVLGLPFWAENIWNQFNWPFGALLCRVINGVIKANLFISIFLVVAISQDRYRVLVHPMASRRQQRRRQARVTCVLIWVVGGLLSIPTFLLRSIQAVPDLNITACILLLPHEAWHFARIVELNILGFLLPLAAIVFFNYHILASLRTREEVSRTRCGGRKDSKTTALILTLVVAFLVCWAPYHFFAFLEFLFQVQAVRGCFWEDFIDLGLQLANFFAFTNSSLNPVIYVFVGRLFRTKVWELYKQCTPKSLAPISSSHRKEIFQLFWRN
Assay: Intrinsic activity was determined
Assay type: functional
Settings: Oryctolagus cuniculus
Where a SMILES comes first, the peptide text is derived from it.
Each record here notes measured Alpha E.
RECORDED ENDPOINT: Alpha E

COMPOUND	ENDPOINT RESULT
N#[N+]c1ccc(C[C@H](NC(=O)CNC(=O)[C@@H]2CCCN2C(=O)[C@@H]2CCCN2C(=O)[C@@H](N)CCCN=C(N)N)C(=O)N[C@@H](CO)C(=O)N2CCC[C@H]2C(=O)N[C@@H](Cc2ccccc2)C(=O)O)cc1	1
[N-]=[N+]=Nc1ccc(/N=N/c2cc(C[C@H](NC(=O)CNC(=O)[C@@H]3CCCN3C(=O)[C@@H]3CCCN3C(=O)[C@@H](N)CCCN=C(N)N)C(=O)N[C@@H](CO)C(=O)N3CCC[C@H]3C(=O)N[C@@H](Cc3ccccc3)C(=O)O)ccc2O)cc1 (HELM PEPTIDE1{R.P.P.G.[[N-]=[N+]=Nc1ccc(/N=N/c2cc(C[C@H](N[*:1])C(=O)[*:2])ccc2O)cc1].S.P.F}$$$$V2.0)	1
NC(N)=NCCC[C@H](NC(=O)[C@H](Cc1ccccc1)NC(=O)[C@@H]1CCCN1C(=O)[C@H](CO)NC(=O)[C@H](Cc1ccc(N)cc1)NC(=O)CNC(=O)[C@@H]1CCCN1C(=O)[C@@H]1CCCN1C(=O)[C@@H](N)CCCN=C(N)N)C(=O)O (HELM PEPTIDE1{R.P.P.G.[Nc1ccc(C[C@H](N[*:1])C(=O)[*:2])cc1].S.P.F.R}$$$$V2.0)	1

----------
Biological target: B2 bradykinin receptor (Homo sapiens) (UniProt P30411)
Sequence (P30411 whole entry): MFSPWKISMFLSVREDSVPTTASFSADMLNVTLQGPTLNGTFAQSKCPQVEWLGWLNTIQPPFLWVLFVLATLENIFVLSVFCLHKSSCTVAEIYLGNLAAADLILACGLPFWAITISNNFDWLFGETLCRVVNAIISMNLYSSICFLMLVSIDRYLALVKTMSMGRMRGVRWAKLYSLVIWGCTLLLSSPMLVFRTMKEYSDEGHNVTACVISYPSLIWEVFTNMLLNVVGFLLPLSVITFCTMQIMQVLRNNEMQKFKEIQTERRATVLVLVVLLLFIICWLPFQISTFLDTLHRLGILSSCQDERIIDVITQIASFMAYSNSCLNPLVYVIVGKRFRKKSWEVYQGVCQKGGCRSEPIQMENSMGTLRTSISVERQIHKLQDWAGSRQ
Assay: Percent agonistic activity in rabbit jugular vein expressing B2 receptor relative to bradykinin
Format: functional
Settings: Oryctolagus cuniculus
Where a SMILES comes first, the peptide text is derived from it.
Each record here notes measured Relative affinity.
RECORDED ENDPOINT: Relative affinity (%)

MOLECULE	RECORDED ENDPOINT	ENDPOINT RESULT
N#[N+]c1ccc(C[C@H](NC(=O)[C@@H]2CCCN2C(=O)[C@H](CO)NC(=O)[C@H](Cc2ccccc2)NC(=O)CNC(=O)[C@@H]2CCCN2C(=O)[C@@H]2CCCN2C(=O)[C@@H](N)CCCN=C(N)N)C(=O)N[C@@H](CCCN=C(N)N)C(=O)O)cc1 (HELM PEPTIDE1{R.P.P.G.F.S.P.[N#[N+]c1ccc(C[C@H](N[*:1])C(=O)[*:2])cc1].R}$$$$V2.0)	Relative affinity	9
COc1ccc(C[C@H](NC(=O)[C@@H]2CCCN2C(=O)[C@H](CO)NC(=O)[C@H](Cc2ccccc2)NC(=O)CNC(=O)[C@@H]2CCCN2C(=O)[C@@H]2CCCN2C(=O)[C@@H](N)CCCN=C(N)N)C(=O)N[C@@H](CCCN=C(N)N)C(=O)O)cc1 (H-RPPGFSPY(Me)R-OH)	Relative affinity	65
COc1ccc(C[C@H](NC(=O)CNC(=O)[C@@H]2CCCN2C(=O)[C@@H]2CCCN2C(=O)[C@@H](N)CCCN=C(N)N)C(=O)N[C@@H](CO)C(=O)N2CCC[C@H]2C(=O)N[C@@H](Cc2ccccc2)C(=O)N[C@@H](CCCN=C(N)N)C(=O)O)cc1 (H-RPPGY(Me)SPFR-OH)	Relative affinity	14

----------
Target: B2 bradykinin receptor (Homo sapiens) (UniProt P30411)
Assay: In vitro 50 % Maximal response in jugular vein expressing B2 receptor
Format: functional
Conditions: Oryctolagus cuniculus
Where a SMILES comes first, the peptide text is derived from it.

MOLECULE	LIMIT OPERATOR	ED50 [nM]
[N-]=[N+]=Nc1ccc(C[C@H](NC(=O)CNC(=O)[C@@H]2CCCN2C(=O)[C@@H]2CCCN2C(=O)[C@@H](N)CCCNC(=N)N)C(=O)N[C@@H](CO)C(=O)N2CCC[C@H]2C(=O)N[C@@H](Cc2ccccc2)C(=O)N[C@@H](CCCNC(=N)N)C(=O)O)cc1 (HELM PEPTIDE1{R.P.P.G.[[N-]=[N+]=Nc1ccc(C[C@H](N[*:1])C(=O)[*:2])cc1].S.P.F.R}$$$$V2.0)	=	10
NC(N)=NCCC[C@H](NC(=O)[C@H](Cc1ccccc1)NC(=O)[C@@H]1CCCN1C(=O)[C@H](CO)NC(=O)[C@H](Cc1ccc(N)cc1)NC(=O)CNC(=O)[C@@H]1CCCN1C(=O)[C@@H]1CCCN1C(=O)[C@@H](N)CCCN=C(N)N)C(=O)O (HELM PEPTIDE1{R.P.P.G.[Nc1ccc(C[C@H](N[*:1])C(=O)[*:2])cc1].S.P.F.R}$$$$V2.0)	=	57
N#[N+]c1ccc(C[C@H](NC(=O)[C@@H]2CCCN2C(=O)[C@H](CO)NC(=O)[C@H](Cc2ccccc2)NC(=O)CNC(=O)[C@@H]2CCCN2C(=O)[C@@H]2CCCN2C(=O)[C@@H](N)CCCN=C(N)N)C(=O)N[C@@H](CCCN=C(N)N)C(=O)O)cc1 (HELM PEPTIDE1{R.P.P.G.F.S.P.[N#[N+]c1ccc(C[C@H](N[*:1])C(=O)[*:2])cc1].R}$$$$V2.0)	=	25
NC(N)=NCCC[C@H](NC(=O)[C@H](Cc1ccc([N+](=O)[O-])cc1)NC(=O)[C@@H]1CCCN1C(=O)[C@H](CO)NC(=O)[C@H](Cc1ccccc1)NC(=O)CNC(=O)[C@@H]1CCCN1C(=O)[C@@H]1CCCN1C(=O)[C@@H](N)CCCN=C(N)N)C(=O)O (HELM PEPTIDE1{R.P.P.G.F.S.P.[O=C([C@H](Cc1ccc([N+](=O)[O-])cc1)N[*:1])[*:2]].R}$$$$V2.0)	=	6.6
[N-]=[N+]=Nc1ccc(C[C@H](NC(=O)[C@@H]2CCCN2C(=O)[C@H](CO)NC(=O)[C@H](Cc2ccccc2)NC(=O)CNC(=O)[C@@H]2CCCN2C(=O)[C@@H]2CCCN2C(=O)[C@@H](N)CCCN=C(N)N)C(=O)N[C@@H](CCCN=C(N)N)C(=O)O)cc1 (HELM PEPTIDE1{R.P.P.G.F.S.P.[[N-]=[N+]=Nc1ccc(C[C@H](N[*:1])C(=O)[*:2])cc1].R}$$$$V2.0)	=	7
NC(N)=NCCC[C@H](NC(=O)[C@H](Cc1cc(I)c(N)c(I)c1)NC(=O)[C@@H]1CCCN1C(=O)[C@H](CO)NC(=O)[C@H](Cc1ccccc1)NC(=O)CNC(=O)[C@@H]1CCCN1C(=O)[C@@H]1CCCN1C(=O)[C@@H](N)CCCN=C(N)N)C(=O)O (HELM PEPTIDE1{R.P.P.G.F.S.P.[Nc1c(I)cc(C[C@H](N[*:1])C(=O)[*:2])cc1I].R}$$$$V2.0)	>	100000
NC(N)=NCCC[C@H](NC(=O)[C@H](Cc1ccc(N)cc1)NC(=O)[C@@H]1CCCN1C(=O)[C@H](CO)NC(=O)[C@H](Cc1ccccc1)NC(=O)CNC(=O)[C@@H]1CCCN1C(=O)[C@@H]1CCCN1C(=O)[C@@H](N)CCCN=C(N)N)C(=O)O (HELM PEPTIDE1{R.P.P.G.F.S.P.[Nc1ccc(C[C@H](N[*:1])C(=O)[*:2])cc1].R}$$$$V2.0)	=	19.5
N=C(N)NCCC[C@H](NC(=O)[C@H](Cc1ccccc1)NC(=O)[C@@H]1CCCN1C(=O)[C@H](CO)NC(=O)[C@H](Cc1cc(I)c(N)c(I)c1)NC(=O)CNC(=O)[C@@H]1CCCN1C(=O)[C@@H]1CCCN1C(=O)[C@@H](N)CCCNC(=N)N)C(=O)O (HELM PEPTIDE1{R.P.P.G.[Nc1c(I)cc(C[C@H](N[*:1])C(=O)[*:2])cc1I].S.P.F.R}$$$$V2.0)	>	100000
N#[N+]c1ccc(C[C@H](NC(=O)CNC(=O)[C@@H]2CCCN2C(=O)[C@@H]2CCCN2C(=O)[C@@H](N)CCCN=C(N)N)C(=O)N[C@@H](CO)C(=O)N2CCC[C@H]2C(=O)N[C@@H](Cc2ccccc2)C(=O)N[C@@H](CCCN=C(N)N)C(=O)O)cc1 (HELM PEPTIDE1{R.P.P.G.[N#[N+]c1ccc(C[C@H](N[*:1])C(=O)[*:2])cc1].S.P.F.R}$$$$V2.0)	=	25
